Entry source: patent US20260226069A1

So I've got a bunch of molecules here, and I need their IC50 values.
target: GCN2 kinase (Homo sapiens, UniProt Q9P2K8); construct: G556E with a; purchased Carna Biosciences; assay: Biochemical assay for GCN2 (TR-FRET kinase activity assay); conditions: 2 nM GCN2, 1 mM ATP, 3-hour incubation

Take a look at these entries with their results.
{"STRUCTURE SMILES STRING": "COc1ncc(Cl)cc1S(=O)(=O)Nc1cc(F)c(F)c(-c2cn(C)c3ncnc(N)c23)c1", "TARGET UNDER TEST": "GCN2 kinase (Homo sapiens, UniProt Q9P2K8)", "EXPERIMENTAL VALUE": "1000 to 10000 nM"}
{"STRUCTURE SMILES STRING": "CNC(=O)c1nc(-c2cccc(NS(=O)(=O)c3cc(Cl)cc(CO)c3Cl)c2F)c2c(N)nccn12", "TARGET UNDER TEST": "GCN2 kinase (Homo sapiens, UniProt Q9P2K8)", "EXPERIMENTAL VALUE": "≤ 100 nM"}
{"STRUCTURE SMILES STRING": "COc1c(CO)cc(Cl)cc1S(=O)(=O)Nc1cccc(-c2nc(C)n3ccnc(N)c23)c1F", "TARGET UNDER TEST": "GCN2 kinase (Homo sapiens, UniProt Q9P2K8)", "EXPERIMENTAL VALUE": "1000 to 10000 nM"}
{"STRUCTURE SMILES STRING": "COc1cc(F)c(S(=O)(=O)Nc2cccc(-c3cn(C)c4ncnc(N)c34)c2F)cc1Cl", "TARGET UNDER TEST": "GCN2 kinase (Homo sapiens, UniProt Q9P2K8)", "EXPERIMENTAL VALUE": "100 to 500 nM"}

Parameters: items (list). Returns: IC50 for each item.
1. Cc1cc(-c2cccc(NS(=O)(=O)c3cc(Cl)cc(CO)c3Cl)c2F)c2c(N)ncnn12
2. COC(=O)c1cc(Cl)cc(S(=O)(=O)Nc2cccc(-c3cn(C)c4ncnc(N)c34)c2F)c1Cl
3. NC(=O)c1cc(-c2cccc(NS(=O)(=O)c3cc(Cl)cc(CO)c3Cl)c2F)c2c(N)ncnn12
4. CNc1nc(-c2cccc(NS(=O)(=O)c3cc(Cl)cc(CO)c3Cl)c2F)c2c(N)nccn12

Result string:
["100 to 500 nM", "1000 to 10000 nM", "≤ 100 nM", "≤ 100 nM"]

----------
Would you kindly list IC50 for each of these molecules?
Target: GCN2 kinase (Homo sapiens, UniProt Q9P2K8)
Construct: G556E with a
Experiment: Biochemical assay for GCN2 (TR-FRET kinase activity assay)
Details: 2 nM GCN2, 1 mM ATP, 3-hour incubation
Description: Biochemical assay for GCN2 Activity of GCN2 kinase was determined using a TR-FRET kinase activity assay (e.g., Analytical Biochemistry, 2006, 356, 108-116). […] Inhibition of GCN2 was measured by adding serial diluted test compound (final assay concentration of 0.5% DMSO) followed by a 3-hour incubation. […] After a 60 min incubation at room temperature, TR-FRET was monitored using an excitation wavelength of 340 nm and emission wavelengths of 490 nm and 520 nm. […]

{"STRUCTURE SMILES STRING": "Cn1cc(-c2cccc(NS(=O)(=O)c3ccc(Br)c(C(F)(F)F)c3)c2F)c2c(N)ncnc21", "EXPERIMENTAL VALUE": "1 to 10 µM"}

// each molecule listed below needs its IC50
1. CCCC(=O)OCc1cc(Cl)cc(S(=O)(=O)Nc2cccc(-c3nc(C)n4ccnc(N)c34)c2F)c1Cl
2. CC(=O)OCc1cc(Cl)cc(S(=O)(=O)Nc2cccc(-c3nc(C)n4ccnc(N)c34)c2F)c1Cl

Result string:
["1 to 10 µM", "1 to 10 µM"]
